Target: T1, PUF4 RNA-binding domain (Saccharomyces cerevisiae, UniProt P25339 537-888)
T1 sequence: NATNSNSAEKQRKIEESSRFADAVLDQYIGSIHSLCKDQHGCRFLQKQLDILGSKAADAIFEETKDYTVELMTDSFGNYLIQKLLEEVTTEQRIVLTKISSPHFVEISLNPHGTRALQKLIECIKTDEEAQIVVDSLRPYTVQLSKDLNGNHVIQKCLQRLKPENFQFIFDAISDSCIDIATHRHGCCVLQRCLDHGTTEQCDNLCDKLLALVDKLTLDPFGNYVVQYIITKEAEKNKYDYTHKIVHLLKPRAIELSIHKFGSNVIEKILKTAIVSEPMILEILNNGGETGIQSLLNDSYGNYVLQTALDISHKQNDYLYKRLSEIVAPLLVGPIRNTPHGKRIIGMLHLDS
Assay: Mg; RNA-MaP; 20 mM Na-HEPES pH 7.4, 30 mM KOAc, 0.75 mM MgCl2, 0.1% Tween-20, 5% glycerol, 0.1 mg/mL BSA, 2 mM DTT; 25 C; 0.0125-409.6 nM protein
Settings: tags: N-His6-TEV cleaved; C-SNAP kept, Cy3B-labelled; label: tethered on chip by stalled RNA polymerase
assayReadout: Kd
Kindly write the number and append the unit.

{"binder": "UCUCUUAUUGUAUUAUUAUUUCUCUU (ssRNA) [Id_ii_S1_P5E.2_K5.1_C5.2_[C-2A]_H5.1_A5.1_F5.1_T5.2_[A12T]]", "Kd": "5.93 nM"}
{"binder": "Ic_S2_P3E.1_K3.1_C3.1_H3.1_A3.1_[T5C]_[A6C]_F3.1_[A8T]_T3.1 (ssRNA) RNA: UUUGAUUAAUAUGAUAUCGUUCUUUCUUGUACCUUUUCUUUCUCGAUAUCAUAUUAAUCUUU", "Kd": "7.54 nM"}
{"binder": "UCUCUUUGUAGCGUUUCUCUU (ssRNA) [Ic_S1_P4E.1_K4.1_C4.1_H4.1_A4.1_[T5G]_[A6C]_[T7G]_F4.1_[A9T]_T4.1]", "Kd": "964 nM"}

Need Kd of Id_ii_S2_P3E.4_K3.3_C3.2_H3.3_A3.1_F3.1_T3.2_[T9A]_[A10T] (ssRNA) RNA: UUUGAUUAAUAUGAUAUCGUUCUUUCUCUACACUAUAAUUUCUUUCUCGAUAUCAUAUUAAUCUUU , thanks.
776 nM

Looking for the measured Kd of UCUCUUUGUACUCACGUCUCUU (ssRNA) [Ic_S1_P5E.1_K5.1_C5.1_H5.1_A5.1_[T5C]_[A7C]_F5.1_[T8A]_[T9C]_[A10G]_T5.1] , can you help?
1100 nM

Recorded Kd for UCUCUUUGUAGCAAUUCUCUU (ssRNA) [Ic_S1_P4E.1_K4.1_C4.1_H4.1_A4.1_[T5G]_[A6C]_[T7A]_F4.1_[T8A]_[A9T]_T4.1] , please?
857 nM

Look up Kd for this binder: UCUCUUUGUACGCAUUCUCUU (ssRNA) [Ic_S1_P4E.1_K4.1_C4.1_H4.1_A4.1_[T5C]_[A6G]_[T7C]_F4.1_[T8A]_[A9T]_T4.1]
425 nM
